Assay: physchem
Details: pH 7.4
Result Type: solubility thermodynamic at 24 h

**Query** Look up solubility thermodynamic at 24 h for this molecule: O=[N+]([O-])CC(c1ccccn1)c1c(-c2ccccc2)[nH]c2ccccc12 (stereo not shown) [Compound 9a]
**Result** 1 µg/mL

----------
Assay: physchem
Details: pH 7.4
Result Type: solubility thermodynamic (µg/mL)
Numbers only, in µg/mL.

Some compounds with known solubility thermodynamic results, for comparison:
1. O=[N+]([O-])CC(c1ccccc1)c1c(-c2ccccc2)[nH]c2ncccc12 (centres unmarked) | 54.6
2. O=[N+]([O-])CC(c1ccccc1)c1c(-c2ccccc2)[nH]c2cccnc12 (centres unmarked) | 3.8
3. O=[N+]([O-])CC(c1ccccc1)c1c(-c2ccncc2)[nH]c2ccccc12 (centres unmarked) | 0.7
4. O=[N+]([O-])CC(c1ccccc1)c1c(-c2ccccc2)[nH]c2ccncc12 (centres unmarked) | 8.1
5. O=[N+]([O-])CC(c1ccncc1)c1c(-c2ccccc2)[nH]c2ccccc12 (centres unmarked) | 12.6
6. O=[N+]([O-])CC(c1ccccc1)c1c(-c2cccnc2)[nH]c2ccccc12 (centres unmarked) | 1.7
7. O=[N+]([O-])CC(c1cccnc1)c1c(-c2ccccc2)[nH]c2ccccc12 (centres unmarked) | 0.4

**Query** Could you share which solubility thermodynamic value was measured for O=[N+]([O-])CC(c1ccccc1)c1c(-c2ccccc2)[nH]c2cnccc12 (centres unmarked) ?
**Result** 2.3
